These measurements were taken from patent US10947202B2.

Test: Stability experiment (storage of crystal forms, HPLC)
Format: physicochemical
Conditions: 5° C. 0 d
Experimental: High performance liquid chromatography spectrum was acquired on an Agilent 1260 HPLC, the specific instrument and test parameters are shown in the table 18 below. Another set of samples were sealed at 5° C. and kept as a control at the same time. […]
Reported RRT (%) 0.86 values follow for various molecules
reported-endpoint: RRT (%) 0.86

[[record]]
molecule = "Cc1cc(N2CCN(Cc3cc(F)c(C(=O)NS(=O)(=O)C4CC4)cc3Cl)CC2)ccc1Cl [crystal form F]"
observed_value = 0.05

[[record]]
molecule = "Cc1cc(N2CCN(Cc3cc(F)c(C(=O)NS(=O)(=O)C4CC4)cc3Cl)CC2)ccc1Cl [crystal form D]"
observed_value = 0.03

[[record]]
molecule = "Cc1cc(N2CCN(Cc3cc(F)c(C(=O)NS(=O)(=O)C4CC4)cc3Cl)CC2)ccc1Cl [crystal form E-3]"
observed_value = 0.08

[[record]]
molecule = "Cc1cc(N2CCN(Cc3cc(F)c(C(=O)NS(=O)(=O)C4CC4)cc3Cl)CC2)ccc1Cl [crystal form A]"
observed_value = 0.05

